Tested on: Calu-3
Assay: cell viability relative to DMSO; higher = less toxic
Conditions: 72 h; 1 nM
READOUT LABEL: cell viability (%)
Numbers only, in %.

- COMPOUND: "CCCCCCCCCCCCCCCC(=O)OC(CC(=O)[O-])C[N+](C)(C)C (stereo not drawn) [palmitoylcarnitine]"
  ASSAY SYSTEM: "Calu-3"
  QUANTITY UNIT: "%"
  cell viability: 98.3
- COMPOUND: "CC(=O)Oc1c(C)cc(OCC(O)CNC(C)C)c(C)c1C (stereo not drawn) [metipranolol]"
  ASSAY SYSTEM: "Calu-3"
  QUANTITY UNIT: "%"
  cell viability: 94.6
- COMPOUND: "Cn1cc(C2=C(c3cn(CCCSC(=N)N)c4ccccc34)C(=O)NC2=O)c2ccccc21 [bisindolylmaleimide-IX]"
  ASSAY SYSTEM: "Calu-3"
  QUANTITY UNIT: "%"
  cell viability: 112
- COMPOUND: "Nc1ccc(C(=O)NCC(=O)O)cc1 [4-aminohippuric-acid]"
  ASSAY SYSTEM: "Calu-3"
  QUANTITY UNIT: "%"
  cell viability: 106
- COMPOUND: "C[N+](C)(C)[C@@H](Cc1c[nH]c(=S)[nH]1)C(=O)O [L-ergothioneine]"
  ASSAY SYSTEM: "Calu-3"
  QUANTITY UNIT: "%"
  cell viability: 97.2

I'm hoping you can list cell viability for every compound here, please.
1. CCC(C(=O)O)c1ccc(CC(C)C)cc1 (stereo not drawn) [butibufen]
2. CC(C)C(=O)SCCCCC[C@H](NC(=O)OC(C)(C)C)C(=O)NC12CC3CC(CC(C3)C1)C2 [TCS-HDAC6-20b]
3. N[C@@H](CCC(=O)N[C@@H](CSN=O)C(=O)NCC(=O)O)C(=O)O [S-nitrosoglutathione]
4. O=c1c(-c2ccc(O)cc2)coc2c([C@@H]3O[C@H](CO)[C@@H](O)[C@H](O)[C@H]3O)c(O)ccc12 [kakonein]
5. NC(=O)C[C@H](N)C(=O)O [L-asparagine]

1. 97.1
2. 101
3. 94
4. 104
5. 95.2
